# Tested on: Human immunodeficiency virus 1
# assay_details: Antiviral activity against VSV-G pseudotyped HIV1 infected in human SupT1 cells at 100 uM after 48 hrs by luciferase reporter gene assay relative to control
# Format: functional
# run_parameters: Human immunodeficiency virus 1, SUP-T1, 48 h
Parameter threshold = 70%. Response is T when inhibition at 100 µM meets or exceeds it, else F.

These recorded examples may help you get a feel for the data.
>>> discrete_label("COC(=O)[C@@]1(Cc2ccc(O)c(C[C@@H](O)C(C)(C)O)c2)OC(=O)C(OC)=C1c1ccc(O)cc1")
"F"
>>> discrete_label("COC1=C(c2ccc(O)cc2)[C@@H](Cc2ccc(O)cc2)OC1=O")
"T"
>>> discrete_label("O=C1O[C@H](Cc2ccc(O)cc2)C(c2ccc(O)cc2)=C1O")
"F"
>>> discrete_label("CC1=C(C)[C@H]2[C@H](Cc3ccccc3)NC(=O)[C@@]2(O)[C@@H](/C=C/C[C@H](C)C(=O)[C@H](C)O)[C@@H]1O")
"F"

Entry CC(C)=CCC/C(=C/CC/C(C)=C/CC/C(C)=C/C[C@]1(O)C(=O)c2c(O)cc(C)c3c(O)c(C)c(O)c(c23)C1=O)CO : is its inhibition at 100 µM no less than 70%?
T

Entry CC1=C(C)[C@H]2[C@H](Cc3ccccc3)NC(=O)[C@]23OC(=O)C/C=C(/C)C(=O)[C@@H](C)C/C=C/[C@H]3[C@@H]1O : is its inhibition at 100 µM no less than 70%?
T

Entry COC(OC)C1CCC(C(C)(C)O)OC1CC/C(C)=C/CC/C(C)=C/C[C@]1(O)C(=O)c2c(O)cc(C)c3c(O)c(C)c(O)c(c23)C1=O (stereo partly specified) : is its inhibition at 100 µM no less than 70%?
T

Entry O=C1O/C(=C\c2ccc(O)c(O)c2)C(O)=C1c1ccc(O)cc1 : is its inhibition at 100 µM no less than 70%?
T

Entry COC(=O)[C@@]1(Cc2ccc3c(c2)C[C@H](O)C(C)(C)O3)OC(=O)C(OC)=C1c1ccc(O)cc1 : is its inhibition at 100 µM no less than 70%?
T
